- ASSAYED TARGET: POU2 (OCT2 POU domain);BOB1 (OBF1, OCA-B) (human;human, UniProt P09086;Q16633 175-386;1-256, |)
- Sequence 1: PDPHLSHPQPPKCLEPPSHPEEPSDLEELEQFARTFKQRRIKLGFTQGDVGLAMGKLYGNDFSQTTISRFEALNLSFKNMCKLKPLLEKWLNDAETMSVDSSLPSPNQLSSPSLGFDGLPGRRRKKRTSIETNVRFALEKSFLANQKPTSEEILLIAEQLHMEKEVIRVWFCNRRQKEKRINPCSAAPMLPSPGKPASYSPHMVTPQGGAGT
- Sequence 2: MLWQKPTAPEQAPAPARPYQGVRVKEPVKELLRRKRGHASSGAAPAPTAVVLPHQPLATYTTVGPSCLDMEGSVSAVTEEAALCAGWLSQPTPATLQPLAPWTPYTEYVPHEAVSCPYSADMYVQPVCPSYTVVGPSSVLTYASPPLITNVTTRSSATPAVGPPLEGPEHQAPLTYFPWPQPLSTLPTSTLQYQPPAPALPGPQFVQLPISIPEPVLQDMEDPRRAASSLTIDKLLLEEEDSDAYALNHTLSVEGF
- EXPERIMENT SUMMARY: EMSA-SELEX-seq; with BOB1 (ternary complex band); 20 mM Tris-HCl pH 7.6, 140 mM NaCl, 10% glycerol, 0.5 mM EDTA, 0.05% Triton X-100, 0.1 mg/mL BSA, 0.1 mg/mL poly(dI-dC), 5 mM DTT, room temperature, 20 min; high values mean tight binding
- CONDITION CONTEXT: protein: recombinant;recombinant; copies: 1;1; dsDNA, one strand shown
I'd be grateful if you could share measured binding signal for these entries.

Tell me the measured binding signal of ATCCCAAG , please.
0.0198 % of ANNNNAAN 8-mers

Would you kindly share the measured binding signal for AGCGAAAA ?
0.033 % of ANNNNAAN 8-mers

Reported binding signal, sequence ACGCAAAG : ____
0.0809 % of ANNNNAAN 8-mers

Report binding signal for AGTGGAAT please.
0.104 % of ANNNNAAN 8-mers

Dear colleague, I am looking for the recorded binding signal of the following sequence: AACACAAG
0.0206 % of ANNNNAAN 8-mers

Please report the recorded binding signal for AACATAAA .
0.0627 % of ANNNNAAN 8-mers

GET /values?readout=binding signal&item= ATATCAAA
0.0726 % of ANNNNAAN 8-mers

// lookup binding signal for ACGTTAAT
0.102 % of ANNNNAAN 8-mers

Reported binding signal, sequence AACCCAAA : ____
0.0206 % of ANNNNAAN 8-mers

Quick check: binding signal of AGTGAAAC ?
0.0206 % of ANNNNAAN 8-mers

Would you kindly share the measured binding signal for ATATAAAT ?
0.116 % of ANNNNAAN 8-mers

Given ATCGAAAG , state its recorded binding signal.
0.0272 % of ANNNNAAN 8-mers

May I ask what binding signal has been recorded for ACGTGAAT ?
0.0784 % of ANNNNAAN 8-mers

Look up binding signal for this sequence: ACCTTAAC
0.0149 % of ANNNNAAN 8-mers

# binding signal lookup, item AAACGAAA
0.052 % of ANNNNAAN 8-mers

binding signal lookup needed for ATTTTAAT , thanks.
0.221 % of ANNNNAAN 8-mers

Fill in: binding signal of ACGGCAAC is ___
0.0124 % of ANNNNAAN 8-mers

// returns reported binding signal for input ACCGTAAA
0.0173 % of ANNNNAAN 8-mers

Please look up its binding signal: ATATCAAG
0.0479 % of ANNNNAAN 8-mers

Reported binding signal, sequence ACTATAAG : ____
0.0314 % of ANNNNAAN 8-mers

Bench note: what binding signal did ACATAAAC show?
0.0751 % of ANNNNAAN 8-mers

Entry under review: ATGTTAAT . Reported binding signal?
0.24 % of ANNNNAAN 8-mers

This collection of values is drawn from paper PMC10812921.
